testedOn: VEGFR2 (Homo sapiens)
Construct: monomeric recombinant form of the extracellular portion of VEGFR2 fused to Fc
Sequence (P35968 20-764 limits assumed): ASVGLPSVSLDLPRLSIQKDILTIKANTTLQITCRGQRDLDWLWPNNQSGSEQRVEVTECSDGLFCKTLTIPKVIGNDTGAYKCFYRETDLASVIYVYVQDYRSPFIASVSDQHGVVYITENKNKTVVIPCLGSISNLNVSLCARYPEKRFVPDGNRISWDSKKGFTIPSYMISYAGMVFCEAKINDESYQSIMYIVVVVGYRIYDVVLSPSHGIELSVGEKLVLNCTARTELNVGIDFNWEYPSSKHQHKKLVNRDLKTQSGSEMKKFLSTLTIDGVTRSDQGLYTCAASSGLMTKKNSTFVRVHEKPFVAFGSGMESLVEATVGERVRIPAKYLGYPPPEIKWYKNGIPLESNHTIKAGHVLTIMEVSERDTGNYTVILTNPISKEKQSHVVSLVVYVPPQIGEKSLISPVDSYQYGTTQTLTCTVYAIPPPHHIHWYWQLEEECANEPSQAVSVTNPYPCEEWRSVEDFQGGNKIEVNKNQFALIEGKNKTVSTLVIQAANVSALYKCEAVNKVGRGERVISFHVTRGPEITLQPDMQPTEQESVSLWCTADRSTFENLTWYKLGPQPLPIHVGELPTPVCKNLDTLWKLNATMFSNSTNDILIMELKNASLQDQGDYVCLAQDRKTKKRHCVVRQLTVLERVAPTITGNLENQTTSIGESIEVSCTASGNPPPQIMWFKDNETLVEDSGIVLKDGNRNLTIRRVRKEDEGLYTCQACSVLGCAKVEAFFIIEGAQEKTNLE
experimentSummary: SPR (BIAcore X100), steady-state Scatchard analysis; supported by VEGF/VEGFR2 ELISA displacement (IC50 […])
readoutKind: Kd (µM)
One number for each entry, in µM.

// C[C@H](CCC(=O)N[C@@H](Cc1c[nH]c2ccccc12)C(=O)O)[C@H]1CC[C@H]2[C@@H]3CC=C4C[C@@H](O)CC[C@]4(C)[C@H]3CC[C@]12C : Kd value = 62.2
